tested on: LOX IMVI melanoma; assay: NCI-60 one-dose screen, 48 h; settings: 10 µM unless noted
Compounds without any hit were thinned out: in the full panel of roughly 83,000, 20% have a hit. Activity calls are given as the source filed them. Rule for the calls: active = growth percent below 10; inactive = the rest.
Write down the outcome that applies. Available outcomes: yes (1) = active, no (0) = inactive

Solved entries (count: 4):
COc1ccc(/C=C2\N=C(c3ccccc3)N(c3ccc(-c4nc5ccc(C)cc5s4)cc3)C2=O)cc1
no (0)
CCOC(=O)C(CC(=O)O)=C(C(=O)OCC)C(=O)OCC
no (0)
COc1cc(/C=C2\CN(S(=O)(=O)c3ccccc3)C/C(=C\c3cc(CN4CCCC4)c(O)c(OC)c3)C2=O)cc(CN2CCCC2)c1O
yes (1)
Cc1nc(Nc2ccccn2)sc1C(=O)/C=C/c1ccc(Cl)cc1
no (0)

Now look at this entry.
Entry O=c1oc2ccc(F)cc2c(=O)n1-c1ccc(Cl)cc1F : call = ?
no (0)

====

test system: BT-549 breast; assay: NCI-60 one-dose screen, 48 h (100 = growth as untreated, 0 = no growth, -100 = all killed); conditions: 10 µM unless noted
This is part of a sample that, as a whole, favours compounds with a hit. Of some 83,000 tested, about 20% had one in any assay.
growth strictly less than 80% = rule met. Otherwise rule not met.

Solved entries (count: 4):
c1ccc(CNc2nc(Nc3ccccc3)nc3ccccc23)cc1
rule not met
COc1ccc(Cn2c(Br)c3c(c2-c2cc(OC)c(OC)c(OC)c2)CCc2sc(NC(=O)c4ccc(OC)cc4)nc2-3)cc1
rule not met
COc1ccc(-c2cn3c(C(=O)Nc4ccccc4Cl)c(-c4ccccc4)c4c3n2CCCC4)cc1
rule not met
CCOC(=O)c1cc2c(n1Cc1ccccc1OC)-c1oncc1CCC2
rule met

Consider COc1ccc2sc(N(Cc3cccnc3)C(=O)c3ccc(C#N)cc3)nc2c1 . Does its growth lie strictly below 80%?
rule not met

Consider Cc1ccc(OCCCCCCNCCO)c(C)c1 . Does its growth lie strictly below 80%?
rule met

Consider COc1ccc(Br)c(/C=C2\SC(=Nc3ccc(O)cc3)NC2=O)c1 . Does its growth lie strictly below 80%?
rule not met

Consider Cn1c(=O)n(C)c2cc(CNCCNc3ccnc4cc(Cl)ccc34)ccc21 . Does its growth lie strictly below 80%?
rule not met

Consider COc1c2ccoc2c(/C=C/C=O)c2oc(-c3ccccc3)cc(=O)c12 . Does its growth lie strictly below 80%?
rule met

Consider Cc1ccc(S(=O)c2ccc([N+](=O)[O-])c3nonc23)cc1 (configuration not stated) . Does its growth lie strictly below 80%?
rule not met

Consider CCC1=C[C@@H]2CN(C1)Cc1c([nH]c3ccccc13)[C@@](C(=O)OC)(c1cc3c(cc1OC)N(C)[C@H]1[C@@](O)(C(=O)OC)[C@H](OC(C)=O)[C@]4(CC)[C@@H]5C[C@@H]5CN5CC[C@]31[C@@H]54)C2 . Does its growth lie strictly below 80%?
rule met

Consider COc1cc(C2C3=C(COC3=O)N(CCO)c3cc4c(cc32)CCC4)cc(OC)c1O (configuration not stated) . Does its growth lie strictly below 80%?
rule met

Consider COc1cc2cc3c(=O)n4c(cc5cc(OC)ncc54)c(=O)n3c2cn1 . Does its growth lie strictly below 80%?
rule not met

Consider O=C(O)CCC(=O)c1ccc(C2CCCCCC2)cc1 . Does its growth lie strictly below 80%?
rule not met

Consider Cc1cccc(NC(=O)c2sc3nc4c(cc3c2N)CCCC4)c1C . Does its growth lie strictly below 80%?
rule met

Consider COC(=O)[C@H]1CCCN1C(=O)[C@H]1CCCN1C(=O)[C@H](Cc1c[nH]c2ccccc12)NC(=S)Nc1cc(C(F)(F)F)cc(C(F)(F)F)c1 . Does its growth lie strictly below 80%?
rule not met

Consider CCn1c(-c2nonc2Nc2ccc(OC)cc2)nc2ccccc21 . Does its growth lie strictly below 80%?
rule not met

Consider COc1ccc(CN2CCCC(C(=O)c3ccc(C(F)(F)F)cc3)C2)c(O)c1 (configuration not stated) . Does its growth lie strictly below 80%?
rule met

====

tested on: HOP-92 NSCLC; assay: NCI-60 one-dose screen, 48 h; conditions: 10 µM unless noted
About 83,000 compounds went through this panel and 20% of them were active in at least one assay; those are over-represented in the sample as a whole. Calls of active or inactive are those of the source. The calls were made as follows: active = growth percent below 10; inactive = the rest.
Write down the outcome that applies. Available outcomes: active, inactive

COc1ccc(Cn2cc(Cn3cc(C=C4C(=O)NC(=O)NC4=O)c4ccccc43)nn2)cc1
inactive
COc1cc(/C=C2\CN(C)C/C(=C\c3cc(CN4CCCCC4)c(O)c(OC)c3)C2=O)cc(CN2CCCCC2)c1O
inactive
O=C(c1nc2ccccc2[nH]1)C1[C@@H](c2cccc(O)c2)C2CC3CCCCC3N2[C@@]12C(=O)Nc1cc(Cl)ccc12 (stereo not given in full)
inactive
CC1=NCC2NC(=O)NC(C)=C12 (stereo not given)
inactive

Entry COc1cc(C(=O)NN=C2c3ccccc3-c3ccccc32)cc(OC)c1OC : call = ?
inactive

Entry O=C(Nc1ccc(-c2nc3cc4ccccc4cc3[nH]2)cc1)c1cccc(Br)c1 : call = ?
inactive

Entry CCOc1cccc(/C=N\Nc2nc(=O)cc(C(=O)OC)s2)c1O : call = ?
inactive

Entry COc1ccc(OC)c(NC(=O)/C(C#N)=C/c2ccco2)c1 : call = ?
inactive

Entry CCN1C(=O)N(c2ccccc2)C2NN=c3s/c(=C4\C(=O)N(C(C)C)c5ccccc54)c(=O)n3C21 (stereo not given) : call = ?
inactive

Entry COc1ccc(C2Nc3ncnc(N)c3N=C3c4ccccc4C(=O)C32)cc1 (stereo not given) : call = ?
inactive

====

Give growth for every item shown.
System: UACC-62 melanoma
Experiment: NCI-60 one-dose screen, 48 h (100 = growth as untreated, 0 = no growth, -100 = all killed)
Settings: 10 µM unless noted
Protocol: Growth inhibition of the UACC-62 human tumor cell line is measured as a screen for anti-cancer activity. Cells are grown in 96 well plates and exposed to the test compound for 48 hours. Compounds are tested at a single concentration, which is 10^-5 M for most compounds. The reported endpoint is percent growth (GI% or GIPRCNT), where numbers from 0 - 100% represent growth inhibition, and numbers from -100% - 0 represent cell death. For example, a value of 40 represents 60% growth inhibition. […]
This is part of a sample that, as a whole, favours compounds with a hit. Of some 83,000 tested, about 20% had one in any assay.
Give bare numbers, in %.

Answered cases to consult:
O=C(/C=C/c1ccc(F)cc1)c1ccc(Nc2nc(NCCO)nc(Nc3ccc(Cl)cc3)n2)cc1
74.5
COC(=O)/C(CCC=C(C)C)=C1\[C@@H](OC(C)=O)C[C@@]2(C)[C@H]1C[C@@H](O)[C@H]1[C@@]3(C)CC[C@H](NCc4ccccc4)[C@@H](C)[C@@H]3CC[C@@]12C
69.3
O=C(CSc1ncccc1C(=O)O)Nc1ccc(Oc2ccccc2)cc1
116

Now take the following compound into account.
Record COc1ccc(N(C)c2nc(N)nc3sc4c(c23)CCCC4)cc1 , field growth: 42.9

====

test system: T-47D breast; experiment: NCI-60 one-dose screen, 48 h (100 = growth as untreated, 0 = no growth, -100 = all killed); conditions: 10 µM unless noted
The panel holds about 83,000 compounds, 20% with a hit somewhere; the sample as a whole holds those more often.
RESULT_TYPE: growth (%)
Numbers only, in %.

Answered cases to consult:
O=C(c1nc2ccccc2[nH]1)C1C(c2ccc(F)cc2)C2CC3CCCCC3N2[C@@]12C(=O)Nc1ccc(Cl)cc12 (stereo not given in full)
37.4
NCCNc1nc2ccc(F)cc2c2c(=O)c3cc(F)ccc3sc12
33.7
COc1cc(C2C(C#N)=C(N)OC3=C2C(=O)c2ccccc2C3=O)cc(OC)c1O (stereo not given)
88.4
COc1cc(OC)cc(N2C(=O)N(Cc3ccc(C(C)(C)C)cc3)c3ccccc3S2(=O)=O)c1
81.1
CC[C@]1(O)C[C@@H]2CN(CCc3c([nH]c4ccccc34)[C@@](C(=O)OC)(c3cc4c(cc3OC)N(C)[C@H]3[C@@](O)(C(=O)OC)[C@H](OC(C)=O)[C@]5(CC)C=CCN6CC[C@]43[C@@H]65)C2)C1
68.6
CCCCN1CCN(c2ccc3nc(-c4ccc5nc(-c6ccc(OCC)cc6)[nH]c5c4)[nH]c3c2)CC1
59.7

Field: growth. Fill in for each record below.
1. O=C1Nc2ccccc2/C1=C/c1cccs1
2. O=C(Nc1nc2c(s1)CCc1c-2c(Br)n(Cc2ccccc2)c1Br)c1ccccc1
3. COc1cc2nc(-c3cccc4cccnc34)nc(NC3CCN(Cc4ccccc4)CC3)c2cc1OC
4. Nc1nc(-c2ccccc2Br)nn1-c1nc2ccccc2s1
5. CN(C)/C=C1\SC(=Nc2ccc(Cl)cc2)NC1=O

-4.77
46.4
-64.4
105
105

Field: growth. Fill in for each record below.
1. COc1ccc(C(=O)C2CC2c2ccc(Cl)cc2)cc1 (stereo not given)
2. O=S1(=O)CCN(Cc2ccccc2)CC1
3. CNCCNc1nc2ccccc2c2c(=O)c3cc(OC)ccc3sc12
4. O=C(N/N=C/c1ccccc1O)C(=O)Nc1ccc(F)cc1
5. CC1=C(C(=O)OCC2CCN(C(=O)OC(C)(C)C)CC2)[C@@H](c2cccc(C#N)c2)C2=C(CC(C)(C)CC2=O)N1
6. COc1ccc(/C=C2\SC(=Nc3ccccc3)NC2=O)cc1
7. c1ccc2cc3c(Nc4ccc(N5CCOCC5)cc4)ccnc3cc2c1

1: 80.8; 2: 93.3; 3: -33.6; 4: 52.6; 5: 56.1; 6: -72.8; 7: 95.5

Field: growth. Fill in for each record below.
1. CCc1ccc(CNCC(O)c2ccccc2)cc1 (stereo not given)
2. COc1cc(/C=C/C(=O)c2ccc(Cl)cc2)cc(CN2CCCCC2)c1O

72
79.3
